Protocol Notes: chemical genetic growth profiling, strain panel (AID 1159580);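 further: tested at 20 µM; growth read once vehicle control cultures reached saturation at 30 °C; 1 = growth at the plate median or of vehicle wells; lower values mean less growth of the strain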
Measurement Parameters: S. cerevisiae deletion strains, growth OD, locus YER167W, strain BCK2, hits give low values
The campaign covered roughly 5,500 compounds. About 2,000 (36%) were called active. Another 18% or so got no clear call; they are omitted. This is one part of the list.
Quick list: normalized growth per entry.

Compound	normalized growth
C=Cc1c2[nH]c(c1C)C=c1[nH]c(c(C)c1C=C)=CC1N=C(C=c3[nH]c(c(C)c3CCC(=O)O)=C2)C(CCC(=O)O)=C1C (configuration not stated)	0.982
C=C1C2CC[C@H]3[C@]4(C)C[C@H](OC5OC(CO)C(OS(=O)(=O)O)C(OS(=O)(=O)O)C5OC(=O)CC(C)C)C[C@@H](C(=O)O)[C@H]4CC[C@]3(C2)[C@H]1O (some centres not stated)	1
CC(=O)C1CCC2C3CC(=O)C4=CC(=O)CCC4(C)C3CCC12C (configuration not stated)	0.995
C=C1C([C@]2(C)C(CC(=O)OC)[C@@](C)(COC(C)=O)OC(=O)C[C@@H]2OC(C)=O)[C@@H](OC=O)[C@H](OC(=O)C(OC(C)=O)C(C)CC)[C@@]2(C)[C@H](c3ccoc3)CC(=O)C12O (some centres not stated)	1.01
CC(N)C(=O)OC(C)(C)Cc1ccc(Cl)cc1 (configuration not stated)	1.01
CC[C@H](/C=C/C(C)C1CCC2C3CCC4=CC(=O)CC[C@]4(C)C3CC[C@]12C)C(C)C (some centres not stated)	1.02
CCOC(=O)C(C)(C)Oc1ccc(Cl)cc1	0.998
COc1cc(NS(=O)(=O)c2ccc(N)cc2)nc(OC)n1	0.977
CC(C)(O)[C@@H]1[C@H]2OC(=O)[C@@H]1[C@]1(O)C[C@H]3O[C@]34C(=O)O[C@H]2[C@]14C	1
C=C(C)[C@@H]1[C@H]2OC(=O)[C@@H]1[C@]1(O)C[C@H]3O[C@]34C(=O)O[C@H]2[C@]14C	1
OCCN1C[C@@H](O)[C@@H](O)C(O)C1CO (some centres not stated)	1.02
COc1ccc2c(C)cc(=O)oc2c1	1
